Listed here: items and their measured IC50.
Test system: HCT-116 cancer cell line
Assay: MTT cytotoxicity assay, colon HCT-116
Assay type: cell-based
Conditions: Homo sapiens, mean ± SD of three experiments, read-out: IC50 HCT116
Property label: IC50

# Compound, Experimental target, Property label, Result
data = [
    ("COc1ccc(-c2nn(-c3ccccc3)c3nc(-c4ccccc4)c(C#N)c(-c4ccc(Cl)cc4)c23)cc1 [Compound 14d]", "HCT-116 cancer cell line", "IC50", "31.1 µM"),
    ("COc1ccc(-c2nn(-c3ccccc3)c3nccc(-c4ccc([N+](=O)[O-])cc4)c23)cc1", "HCT-116 cancer cell line", "IC50", "40 µM"),
    ("COc1ccc(-c2nn(-c3ccccc3)c3nc(-c4ccccc4)c(C#N)c(-c4ccc(OC)c(OC)c4)c23)cc1 [Compound 14h]", "HCT-116 cancer cell line", "IC50", "3.69 µM"),
    ("COc1ccc(-c2nn(-c3ccccc3)c3nc(-c4ccccc4)c(C#N)c(-c4ccc(N(C)C)cc4)c23)cc1 [Compound 14f]", "HCT-116 cancer cell line", "IC50", "40 µM"),
    ("COc1ccc(-c2nn(-c3ccccc3)c3nccc(-c4ccc(F)cc4)c23)cc1", "HCT-116 cancer cell line", "IC50", "17.5 µM"),
    ("COc1ccc(-c2nn(-c3ccccc3)c3nc(-c4ccccc4)c(C#N)c(-c4ccc(C)cc4)c23)cc1 [Compound 14b]", "HCT-116 cancer cell line", "IC50", "36.3 µM"),
    ("COc1ccc(-c2nn(-c3ccccc3)c3nccc(-c4ccccc4)c23)cc1", "HCT-116 cancer cell line", "IC50", "15.3 µM"),
]

---

Tested on: MCF7 cancer cell line
Assay: MTT cytotoxicity assay, breast cancer MCF7
Type: cell-based
Conditions: Homo sapiens, mean ± SD of three experiments
pIC50: −log10 of the molar value.
Listed here: items and their measured pIC50.
Property label: pIC50

# Molecule, Result number
rows = [
    ("COc1ccc(-c2nn(-c3ccccc3)c3nc(-c4ccccc4)c(C#N)c(-c4ccc(N(C)C)cc4)c23)cc1 [Compound 14f]", 4.71),
    ("COc1ccc(-c2nn(-c3ccccc3)c3nc(-c4ccccc4)c(C#N)c(-c4ccc(O)cc4)c23)cc1 [Compound 14g]", 5.33),
    ("COc1ccc(-c2nn(-c3ccccc3)c3nc(-c4ccccc4)c(C#N)c(-c4ccc(Cl)cc4)c23)cc1 [Compound 14d]", 4.43),
    ("COc1ccc(-c2nn(-c3ccccc3)c3nccc(-c4ccc(F)cc4)c23)cc1", 4.89),
]

Source listed as paper PMC10490123.
